Entries and their fold change (FC) values follow.
- Experiment Notes: Induction of anti-CD3/CD28 antibodies-stimulated human T cell activation at 0.3 uM assessed fold increase in CD25 expression measured by ELISA assay
- Type: functional, T cell line

As a guide, the following entries are already answered.
Cn1cnnc1CC(C)(C)c1cccc(NC(=O)c2cc(C(=O)N3CC[C@H](O)C3)cc(C(F)(F)F)n2)c1 :: 1.01
Cn1cnnc1CC1(c2cccc(N3Cc4c(cc(N5CC(C(F)F)C5)cc4C(F)(F)F)C3=O)c2)COC1 :: 1.01
Cn1cnnc1C(F)(F)[C@](C)(F)c1cccc(N2Cc3c(cc(CN4CC(C(F)F)C4)cc3C(F)(F)F)C2=O)c1 :: 1.31
Cn1cnnc1[C@@H]1C[C@@H]1c1cccc(N2Cc3c(cc(CN4CC[C@H](F)C4)cc3C(F)(F)F)C2=O)c1 :: 1.31

So, `C[C@H](Sc1nncn1C)c1cccc(NC(=O)c2ccnc(C3CC3)n2)c1` ? Its fold change (FC) was 1.01

###

- Target System: E3 ubiquitin-protein ligase CBL-B (Homo sapiens)
- Sequence (Q13191 whole entry, the tested form may be a part): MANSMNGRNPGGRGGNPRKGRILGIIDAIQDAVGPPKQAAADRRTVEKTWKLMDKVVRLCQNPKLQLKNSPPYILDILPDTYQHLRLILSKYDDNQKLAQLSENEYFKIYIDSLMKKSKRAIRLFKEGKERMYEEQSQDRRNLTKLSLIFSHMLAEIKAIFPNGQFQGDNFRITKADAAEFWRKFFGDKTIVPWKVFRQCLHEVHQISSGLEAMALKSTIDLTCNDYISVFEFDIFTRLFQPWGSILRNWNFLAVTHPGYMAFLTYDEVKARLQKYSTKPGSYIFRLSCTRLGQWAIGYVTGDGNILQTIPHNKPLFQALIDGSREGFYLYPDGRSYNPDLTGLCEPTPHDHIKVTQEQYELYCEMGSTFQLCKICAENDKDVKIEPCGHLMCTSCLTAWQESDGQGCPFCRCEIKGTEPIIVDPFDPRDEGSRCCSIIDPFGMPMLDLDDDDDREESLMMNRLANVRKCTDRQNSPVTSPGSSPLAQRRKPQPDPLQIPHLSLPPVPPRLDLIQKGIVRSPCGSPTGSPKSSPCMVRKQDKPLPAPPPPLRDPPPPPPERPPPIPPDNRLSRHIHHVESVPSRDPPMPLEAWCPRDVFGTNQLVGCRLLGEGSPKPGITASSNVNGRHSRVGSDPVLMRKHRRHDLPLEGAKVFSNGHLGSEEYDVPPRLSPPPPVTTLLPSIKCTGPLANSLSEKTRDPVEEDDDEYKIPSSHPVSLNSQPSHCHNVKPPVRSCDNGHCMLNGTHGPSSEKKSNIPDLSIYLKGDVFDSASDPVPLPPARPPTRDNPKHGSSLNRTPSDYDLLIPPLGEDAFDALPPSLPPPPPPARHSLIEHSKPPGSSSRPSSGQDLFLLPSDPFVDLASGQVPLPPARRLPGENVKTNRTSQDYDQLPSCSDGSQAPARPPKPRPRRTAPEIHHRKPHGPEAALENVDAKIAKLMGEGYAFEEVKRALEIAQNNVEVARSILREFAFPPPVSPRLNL
- Experiment Notes: Binding affinity towards N-terminal biotinylated Avi-tagged human CBL-B (36 to 427 residues) measured by surface plasmon resonance assay
pKd: −log10 of the molar value.
Entries and their pKd values follow.

As a guide, the following entries are already answered.
C[C@H](Sc1nncn1C)c1cccc(NC(=O)c2cc(C(=O)N3CCCC3)ccn2)c1 :: < 5.00
C[C@H](Sc1nncn1C)c1cccc(NC(=O)c2cccc(C(F)(F)F)c2)c1 :: < 5.00

So, `Cn1cnnc1CC1(c2cccc(N3Cc4c(cc(CN5CCC(C)(F)CC5)cc4C(F)(F)F)C3=O)c2)COC1` ? Its pKd was > 7.00

So, C=CCC(Sc1nncn1C)c1cccc(NC(=O)c2ccc3ccccc3n2)c1 (stereo not drawn) ? Its pKd was < 5.00

So, `Cc1c[nH]nc1-c1cc2c(c(C(F)(F)F)c1)CN(c1cccc([C@H](C)Cc3nncn3C)c1)C2=O` ? Its pKd was > 7.00

So, `C[C@H](c1cc2c(c(C(F)(F)F)c1)CN(c1cccc(C3([C@@H](F)c4nncn4C)COC3)c1)C2=O)N1CCC2(CC2)C1` ? Its pKd was > 7.00

So, `Cn1cnnc1CC1(c2cccc(NC(=O)c3cc(CN4CC[C@H](F)C4)cc(C4CC4)n3)c2)COC1` ? Its pKd was > 7.00

So, `Cn1cnnc1C(F)(F)[C@](C)(F)c1cccc(N2Cc3c(cc(CN4CC[C@H](F)C4)cc3C(F)(F)F)C2=O)c1` ? Its pKd was > 7.00

###

- Experiment Notes: Induction of anti-CD3/CD28 antibodies-stimulated human T cell activation at 0.3 uM assessed fold increase in CD25 expression measured by ELISA assay
- Assay type: functional, T cell line
Entries and their fold change (FC) values follow.
Reply briefly: the number, and no unit.

So, `C[C@H](Cc1nncn1C)c1cccc(N2Cc3c(cc(CN4CC(F)C4)cc3C(F)(F)F)C2=O)c1` ? Its fold change (FC) was 1.01

So, `Cn1cnnc1C[C@]1(c2cccc(N3Cc4c(cccc4C(F)(F)F)C3=O)c2)C[C@H](CO)C1` ? Its fold change (FC) was 1.31

So, `CCOc1cc(N2Cc3c(cc(CN4CC[C@H](F)C4)cc3C(F)(F)F)C2=O)cc(C2(Cc3nncn3C)COC2)c1` ? Its fold change (FC) was 1.31
